Taken from ChEMBL document CHEMBL1128213.

# EXPERIMENTAL SYSTEM: D(2) dopamine receptor (Rattus norvegicus)
# Sequence (P61169 whole entry): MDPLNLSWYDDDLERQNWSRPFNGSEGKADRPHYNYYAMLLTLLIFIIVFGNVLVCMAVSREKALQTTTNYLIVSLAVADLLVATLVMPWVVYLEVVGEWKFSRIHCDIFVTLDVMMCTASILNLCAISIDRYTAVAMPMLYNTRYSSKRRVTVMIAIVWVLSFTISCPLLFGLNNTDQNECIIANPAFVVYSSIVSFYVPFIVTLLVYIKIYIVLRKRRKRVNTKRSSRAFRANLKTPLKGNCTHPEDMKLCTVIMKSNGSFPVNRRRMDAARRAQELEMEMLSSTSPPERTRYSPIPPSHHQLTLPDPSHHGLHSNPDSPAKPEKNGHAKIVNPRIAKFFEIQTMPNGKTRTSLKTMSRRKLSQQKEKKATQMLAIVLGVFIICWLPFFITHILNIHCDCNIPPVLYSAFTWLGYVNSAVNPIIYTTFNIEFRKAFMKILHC
# TEST DESCRIPTION: Binding affinity towards Dopamine receptor D2 of rat using [3H]spiperone
REPORTED ENDPOINT: Ki (pM)

> print(dat)
                                chem.smiles                       experimental.system  unit.label  measurement
1  COc1ccccc1N1CCN(Cc2ccc(-c3ccccc3)n2C)CC1  D(2) dopamine receptor (Rattus norvegicus)          pM          800

----------
# EXPERIMENTAL SYSTEM: UniProtKB P21917
# Sequence (P21917 whole entry): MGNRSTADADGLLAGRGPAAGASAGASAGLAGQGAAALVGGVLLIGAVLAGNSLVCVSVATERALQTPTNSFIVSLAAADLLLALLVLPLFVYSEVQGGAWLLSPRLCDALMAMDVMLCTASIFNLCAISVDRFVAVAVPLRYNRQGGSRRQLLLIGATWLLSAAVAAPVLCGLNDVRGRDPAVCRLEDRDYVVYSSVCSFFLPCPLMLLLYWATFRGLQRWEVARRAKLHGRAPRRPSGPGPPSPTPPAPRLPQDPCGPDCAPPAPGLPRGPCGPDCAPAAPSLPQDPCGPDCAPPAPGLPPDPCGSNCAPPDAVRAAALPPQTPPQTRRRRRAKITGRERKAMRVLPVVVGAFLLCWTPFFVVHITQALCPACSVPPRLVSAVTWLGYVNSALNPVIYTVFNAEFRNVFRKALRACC
REPORTED ENDPOINT: Ki (nM)

> print(dat)
                                chem.smiles  measurement
1   c1ccc(N2CCN(Cc3ccn(-c4ccccc4)c3)CC2)cc1            4
2  O=C1NCN(c2ccccc2)C12CCN(Cc1ccn(-c3ccccc3)c1)CC2          201
3   c1ccc(-n2ccc(CN3CCN(c4ccccn4)CC3)c2)cc1          1.6
4  C1=C(c2ccccc2)CCN(Cc2ccn(-c3ccccc3)c2)C1            4
5  O=c1[nH]c2ccccc2n1C1CCN(Cc2ccn(-c3ccccc3)c2)CC1          646

----------
# EXPERIMENTAL SYSTEM: UniProtKB P52703
# Sequence (P52703 whole entry): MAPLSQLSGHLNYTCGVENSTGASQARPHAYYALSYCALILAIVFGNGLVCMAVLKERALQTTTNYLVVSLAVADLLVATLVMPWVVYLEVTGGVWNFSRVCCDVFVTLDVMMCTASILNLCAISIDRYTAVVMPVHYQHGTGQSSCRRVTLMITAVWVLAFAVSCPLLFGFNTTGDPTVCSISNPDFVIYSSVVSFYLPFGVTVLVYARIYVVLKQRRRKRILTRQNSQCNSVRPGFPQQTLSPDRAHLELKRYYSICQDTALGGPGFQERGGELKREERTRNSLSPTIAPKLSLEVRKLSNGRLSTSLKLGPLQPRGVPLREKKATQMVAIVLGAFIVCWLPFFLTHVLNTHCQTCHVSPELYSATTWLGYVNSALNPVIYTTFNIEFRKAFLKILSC
pKi: −log10 of the molar value.
A collection of compounds and their measured pKi
REPORTED ENDPOINT: pKi

> print(dat)
                                chem.smiles  experimental.system  measurement
1  O=C1NCN(c2ccccc2)C12CCN(Cc1ccn(-c3ccccc3)c1)CC2     UniProtKB P52703         7.05
2  O=c1[nH]c2ccccc2n1C1CCN(Cc2ccn(-c3ccccc3)c2)CC1     UniProtKB P52703         6.40
3     CN1CCN(C2=Nc3cc(Cl)ccc3Nc3ccccc32)CC1     UniProtKB P52703         6.33
4   c1ccc(C2CCN(Cc3ccn(-c4ccccc4)c3)CC2)cc1     UniProtKB P52703         7.21
